molecular target: UniProt P51451
Sequence (P51451 whole entry): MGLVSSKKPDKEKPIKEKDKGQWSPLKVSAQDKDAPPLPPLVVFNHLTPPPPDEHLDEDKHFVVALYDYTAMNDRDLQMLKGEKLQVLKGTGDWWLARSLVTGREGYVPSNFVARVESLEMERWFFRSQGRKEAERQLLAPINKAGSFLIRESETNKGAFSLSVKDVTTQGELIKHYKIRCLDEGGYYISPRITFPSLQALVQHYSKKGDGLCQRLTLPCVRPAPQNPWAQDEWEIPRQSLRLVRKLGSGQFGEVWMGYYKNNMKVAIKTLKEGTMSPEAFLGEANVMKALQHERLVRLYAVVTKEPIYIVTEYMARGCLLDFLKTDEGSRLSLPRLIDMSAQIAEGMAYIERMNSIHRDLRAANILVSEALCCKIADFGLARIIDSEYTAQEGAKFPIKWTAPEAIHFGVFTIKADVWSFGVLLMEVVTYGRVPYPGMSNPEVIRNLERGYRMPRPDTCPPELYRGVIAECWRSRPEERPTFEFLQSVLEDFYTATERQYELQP
quantity.kind: pIC50
Field pIC50 (float): negative decimal logarithm of the concentration in molar.

Form: item CC#CC(=O)N1CCC[C@H]1c1nc(-c2ccc(C(=O)Nc3cc(C(F)(F)F)ccn3)c(OC)c2)c2c(N)nccn12 ; test system UniProt P51451; pIC50: 6.31

====

target: BTK (Homo sapiens (Human)); test: BTK enzyme activity, IMAP assay; assay type: biochemical; details: 60 min pre-incubation; 5 μM ATP
Sequence (Q06187 whole entry): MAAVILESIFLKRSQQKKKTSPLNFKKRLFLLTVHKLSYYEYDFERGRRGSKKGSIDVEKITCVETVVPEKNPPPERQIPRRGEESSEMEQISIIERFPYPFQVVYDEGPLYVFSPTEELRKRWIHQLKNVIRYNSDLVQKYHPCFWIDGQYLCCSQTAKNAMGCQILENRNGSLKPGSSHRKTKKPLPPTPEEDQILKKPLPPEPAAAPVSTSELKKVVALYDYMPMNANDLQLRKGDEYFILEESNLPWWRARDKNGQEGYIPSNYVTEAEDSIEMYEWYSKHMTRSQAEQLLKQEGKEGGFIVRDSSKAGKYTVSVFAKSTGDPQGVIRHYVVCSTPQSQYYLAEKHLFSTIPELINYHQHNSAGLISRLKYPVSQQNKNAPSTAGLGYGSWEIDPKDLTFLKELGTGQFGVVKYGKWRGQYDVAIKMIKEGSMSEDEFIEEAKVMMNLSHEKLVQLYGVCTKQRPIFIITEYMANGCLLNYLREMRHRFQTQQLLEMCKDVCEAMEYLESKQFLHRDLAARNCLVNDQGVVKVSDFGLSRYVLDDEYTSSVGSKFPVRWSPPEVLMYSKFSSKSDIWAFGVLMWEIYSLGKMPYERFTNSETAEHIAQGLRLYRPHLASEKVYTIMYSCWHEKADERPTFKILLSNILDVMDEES
This section presents compounds with their documented IC50 values.

CC#CC(=O)N(C)[C@@H](C)c1nc(-c2ccc(C(=O)Nc3ccc(C)cn3)c(OC)c2)c2c(N)nccn12 [drawing 89] ... 5.1 nM
CC#CC(=O)N(C)[C@@H](C)c1nc(-c2ccc(C(=O)Nc3ccc(C)cn3)c(OC)c2)c2c(N)nccn12 [drawing 83] ... 4.2 nM
CC#CC(=O)N[C@@H](C)c1nc(-c2ccc(C(=O)Nc3ccccn3)c(OC)c2)c2c(N)nccn12 ... 1.6 nM
CC#CC(=O)N[C@@H](C)c1nc(-c2ccc(C(=O)Nc3cc(C(F)(F)F)ccn3)c(OC)c2)c2c(N)nccn12 ... 2.2 nM
CC#CC(=O)N1CCC[C@H]1c1nc(-c2ccc(C(=O)Nc3nccs3)c(OC)c2)c2c(N)nccn12 ... 3.9 nM

The value of IC50 measured for the compound CC#CC(=O)N1CCC[C@H]1c1nc(-c2ccc(C(=O)Nc3cscn3)cc2)c2c(N)nccn12 turned out to be 6.3 nM

The compound listed as COC/C=C/C(=O)N[C@@H](C)c1nc(-c2ccc(C(=O)Nc3ccc(C)cn3)c(OC)c2)c2c(N)nccn12 shows IC50 equal to 3.9 nM

The recorded IC50 for entry CC#CC(=O)N(C)[C@@H](C)c1nc(-c2ccc(C(=O)Nc3ccc(C)cn3)cc2)c2c(N)nccn12 equals 1.8 nM

Looking up CC#CC(=O)N(C)[C@@H](C)c1nc(-c2ccc(C(=O)Nc3cc(C(F)(F)F)ccn3)c(OC)c2)c2c(N)nccn12 , I see its IC50 listed as 3.5 nM

====

target: Bmx (Homo sapiens (Human), UniProt P51813)
Sequence (P51813 whole entry): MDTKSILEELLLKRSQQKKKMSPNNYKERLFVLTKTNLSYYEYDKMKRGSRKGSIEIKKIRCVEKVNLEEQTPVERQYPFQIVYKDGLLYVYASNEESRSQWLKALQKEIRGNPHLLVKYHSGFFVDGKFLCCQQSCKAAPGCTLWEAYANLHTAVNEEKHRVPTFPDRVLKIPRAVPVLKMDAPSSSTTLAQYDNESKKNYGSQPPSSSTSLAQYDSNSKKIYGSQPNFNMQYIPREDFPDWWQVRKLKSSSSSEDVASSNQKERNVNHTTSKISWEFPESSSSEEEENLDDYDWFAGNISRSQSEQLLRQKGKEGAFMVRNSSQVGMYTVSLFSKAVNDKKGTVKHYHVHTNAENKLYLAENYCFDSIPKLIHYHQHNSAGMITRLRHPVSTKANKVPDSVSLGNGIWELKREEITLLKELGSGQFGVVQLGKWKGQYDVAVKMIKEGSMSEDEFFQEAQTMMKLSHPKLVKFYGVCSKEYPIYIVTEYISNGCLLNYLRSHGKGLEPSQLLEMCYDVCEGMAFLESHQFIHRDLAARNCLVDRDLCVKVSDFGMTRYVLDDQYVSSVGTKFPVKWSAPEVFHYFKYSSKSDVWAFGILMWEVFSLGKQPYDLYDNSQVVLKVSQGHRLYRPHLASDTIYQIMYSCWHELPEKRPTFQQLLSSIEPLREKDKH
# if measured IC50 < 3 nM: 1  # else: 0

Worked set:
CC#CC(=O)N[C@@H](C)c1nc(-c2ccc(C(=O)Nc3ccc(C)cn3)c(OC)c2)c2c(N)nccn12 ... 1
CC#CC(=O)N1CCC[C@H]1c1nc(-c2ccc(C(=O)Nc3ccc(C)cn3)c(OC)c2)c2c(N)nccn12 ... 0
CC#CC(=O)N[C@@H](C)c1nc(-c2ccc(C(=O)Nc3cc(C(F)(F)F)ccn3)cc2)c2c(N)nccn12 ... 1
CC#CC(=O)N(C)[C@@H](C)c1nc(-c2ccc(C(=O)Nc3ccc(C)cn3)c(OC)c2)c2c(N)nccn12 [drawing 89] ... 0
CC#CC(=O)N[C@@H](C)c1nc(-c2ccc(C(=O)Nc3ccc(C)cn3)cc2)c2c(N)nccn12 ... 1

In the following, a different compound is considered.
Req: is_below(IC50, 3 nM) for CC#CC(=O)N(C)[C@@H](C)c1nc(-c2ccc(C(=O)Nc3ccc(C)cn3)c(OC)c2)c2c(N)nccn12 [drawing 83] ?
Resp: 0

====

Observed pIC50 for Txk (Homo sapiens (Human), UniProt P42681), reported per entry below.
Scale: pIC50 equals -log10([C]), with [C] in mol/L.

Field: example entries. Status: answers known.
CC#CC(=O)N1CCC[C@H]1c1nc(-c2ccc(C(=O)Nc3nccs3)c(OC)c2)c2c(N)nccn12 ... 8.15
CC#CC(=O)N[C@@H](C)c1nc(-c2ccc(C(=O)Nc3cc(C(F)(F)F)ccn3)cc2)c2c(N)nccn12 ... 8.74
COC/C=C/C(=O)N(C)[C@@H](C)c1nc(-c2ccc(C(=O)Nc3ccc(C)cn3)cc2)c2c(N)nccn12 ... 7.85
CC#CC(=O)N[C@@H](C)c1nc(-c2ccc(C(=O)Nc3ccc(C)cn3)cc2)c2c(N)nccn12 ... 8.68

Lookup result for CC#CC(=O)N(C)[C@@H](C)c1nc(-c2ccc(C(=O)Nc3cc(C(F)(F)F)ccn3)c(OC)c2)c2c(N)nccn12 ; measured pIC50: 7.89

Item: CC#CC(=O)N1CCC[C@H]1c1nc(-c2ccc(C(=O)Nc3cscn3)cc2)c2c(N)nccn12 | pIC50: 7.47

Entry CC#CC(=O)N(C)[C@@H](C)c1nc(-c2ccc(C(=O)Nc3ccc(C)cn3)c(OC)c2)c2c(N)nccn12 [drawing 89] — recorded pIC50 = 8.29

According to the records, this compound CC#CC(=O)N(C)[C@@H](C)c1nc(-c2ccc(C(=O)Nc3ccc(C)cn3)c(OC)c2)c2c(N)nccn12 [drawing 83] displays pIC50 of 7.92

====

target: Jak3 (Homo sapiens (Human))
Sequence (P52333 whole entry): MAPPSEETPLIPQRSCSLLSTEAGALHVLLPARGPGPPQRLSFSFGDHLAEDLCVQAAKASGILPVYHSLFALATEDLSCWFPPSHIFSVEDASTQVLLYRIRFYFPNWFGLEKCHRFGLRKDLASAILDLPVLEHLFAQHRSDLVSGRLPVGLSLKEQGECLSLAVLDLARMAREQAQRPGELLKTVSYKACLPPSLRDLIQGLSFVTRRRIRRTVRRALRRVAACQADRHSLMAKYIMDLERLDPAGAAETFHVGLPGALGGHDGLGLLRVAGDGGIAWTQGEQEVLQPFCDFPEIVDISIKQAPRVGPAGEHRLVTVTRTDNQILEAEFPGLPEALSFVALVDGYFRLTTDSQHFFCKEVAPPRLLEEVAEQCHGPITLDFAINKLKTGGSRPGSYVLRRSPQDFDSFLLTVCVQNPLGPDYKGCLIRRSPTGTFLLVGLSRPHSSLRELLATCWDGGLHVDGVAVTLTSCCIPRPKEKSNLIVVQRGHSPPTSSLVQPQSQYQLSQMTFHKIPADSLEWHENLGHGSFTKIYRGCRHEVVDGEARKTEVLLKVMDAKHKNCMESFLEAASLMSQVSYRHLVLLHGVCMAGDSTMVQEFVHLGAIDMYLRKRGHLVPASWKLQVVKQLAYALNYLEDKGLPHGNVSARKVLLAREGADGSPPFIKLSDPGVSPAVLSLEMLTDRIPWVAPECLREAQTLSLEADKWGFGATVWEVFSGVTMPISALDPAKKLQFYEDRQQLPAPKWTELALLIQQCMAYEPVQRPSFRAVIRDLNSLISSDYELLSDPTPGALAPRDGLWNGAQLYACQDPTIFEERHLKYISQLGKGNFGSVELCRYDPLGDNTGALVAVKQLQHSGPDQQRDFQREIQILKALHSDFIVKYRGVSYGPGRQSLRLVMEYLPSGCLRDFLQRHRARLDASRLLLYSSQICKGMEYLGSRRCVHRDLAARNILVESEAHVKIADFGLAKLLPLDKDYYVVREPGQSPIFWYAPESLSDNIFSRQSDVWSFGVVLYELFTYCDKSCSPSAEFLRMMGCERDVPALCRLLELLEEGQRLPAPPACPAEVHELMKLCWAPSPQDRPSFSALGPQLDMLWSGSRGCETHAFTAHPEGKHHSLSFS
quantity.kind: IC50

# IC50 measured on Jak3 (Homo sapiens (Human)) for item CC#CC(=O)N1CCC[C@H]1c1nc(-c2ccc(C(=O)Nc3cc(C(F)(F)F)ccn3)c(OC)c2)c2c(N)nccn12 = > 1000 nM

====

These molecules were tested on Txk (Homo sapiens (Human), UniProt P42681); IC50 is the recorded read-out.
Sequence (P42681 whole entry): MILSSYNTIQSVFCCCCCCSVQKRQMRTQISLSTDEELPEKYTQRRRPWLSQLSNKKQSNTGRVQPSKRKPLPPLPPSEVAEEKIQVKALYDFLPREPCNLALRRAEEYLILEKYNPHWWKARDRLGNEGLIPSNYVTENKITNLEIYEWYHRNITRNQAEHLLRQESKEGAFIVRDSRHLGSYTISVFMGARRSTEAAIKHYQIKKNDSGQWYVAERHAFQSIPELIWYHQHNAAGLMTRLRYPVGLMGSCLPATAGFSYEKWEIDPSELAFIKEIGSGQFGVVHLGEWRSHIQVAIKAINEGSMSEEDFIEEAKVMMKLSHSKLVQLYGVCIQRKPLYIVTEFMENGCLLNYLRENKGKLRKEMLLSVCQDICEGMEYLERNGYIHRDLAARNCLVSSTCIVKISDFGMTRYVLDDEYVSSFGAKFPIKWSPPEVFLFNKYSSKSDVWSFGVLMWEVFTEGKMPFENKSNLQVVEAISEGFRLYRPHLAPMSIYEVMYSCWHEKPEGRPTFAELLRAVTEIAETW
State just the number; it will be interpreted in nM.

Answered examples (3):
COC/C=C/C(=O)N[C@@H](C)c1nc(-c2ccc(C(=O)Nc3ccc(C)cn3)cc2)c2c(N)nccn12 ... 1.5
CC#CC(=O)N(C)[C@@H](C)c1nc(-c2ccc(C(=O)Nc3ccccn3)cc2)c2c(N)nccn12 ... 3.7
CC#CC(=O)N1CCC[C@H]1c1nc(-c2ccc(C(=O)Nc3ccc(C)cn3)c(OC)c2)c2c(N)nccn12 ... 11

Next, consider the following molecule.
Let me check: CC#CC(=O)N[C@@H](C)c1nc(-c2ccc(C(=O)Nc3ccccn3)c(OC)c2)c2c(N)nccn12 , system Txk (Homo sapiens (Human), UniProt P42681), measured IC50 is 2
